Hello, the source for this data is ChEMBL document CHEMBL3988442, in case you need it.

This listing pairs compounds with measured IC50.
assay.overview: microbe, parasite or virus in culture
applied.conditions: Mycobacterium tuberculosis, 96 h, read-out: pIC50 (converted)
Only the number, expressed in µM, is required.

Query block: Entry CCOCc1nnc(NCc2ccsc2)o1 : reported IC50 = ?
Result block: 24.8

Query block: Entry COc1ccc(F)c(-c2cc(C(=O)NC3CC3)ccn2)c1 : reported IC50 = ?
Result block: 10.6

Query block: Entry CS(=O)(=O)CCN1CCC(Oc2ccc(F)cc2)CC1 : reported IC50 = ?
Result block: 280

Query block: Entry CC(C)S(=O)(=O)CCCn1nnc(-c2ccsc2)n1 : reported IC50 = ?
Result block: 94.9

###

assay.overview: microbe, parasite or virus in culture
applied.conditions: Mycobacterium tuberculosis, 72 h, read-out: pIC50 (converted)
This listing pairs compounds with measured IC50.
Only the number, expressed in µM, is required.

Recorded results for 7 compounds are shown here.
- compound: "O=C(NCC(O)C1CCCCC1)[C@@H](O)c1ccccc1 (stereo partly drawn)"
  u: "µM"
  IC50: 86.1
- compound: "Cc1nc(-c2cc(Cl)cc3c2OC(CN)C3)c[nH]1 (stereo not drawn)"
  u: "µM"
  IC50: 13.6
- compound: "CCCn1c(O)nnc1SCc1cccc(OC)n1"
  u: "µM"
  IC50: 256
- compound: "Cc1cc(C)n(-c2nc(NCCCO)c3c4c(sc3n2)CCCC4)n1"
  u: "µM"
  IC50: 45.4
- compound: "NCCC1CSc2ccccc2O1 (stereo not drawn)"
  u: "µM"
  IC50: 129
- compound: "CCC1(CO)CCCN(CCn2cc(Cl)cn2)C1 (stereo not drawn)"
  u: "µM"
  IC50: 138
- compound: "O=C(Nc1nncs1)c1ccccn1"
  u: "µM"
  IC50: 36.5

Kindly consider the entry below.
Query block: Entry CCCc1noc(C(C)Nc2cccc(C(N)=O)c2)n1 (stereo not drawn) : reported IC50 = ?
Result block: 56.4

###

This listing pairs compounds with measured Percent Effect.
Test system: Schistosoma mansoni
assay.overview: High throughput screening of compounds against Schistosoma mansoni motility
Type: functional
Parameters: dose or concentration left out as unconfirmed
Only the number, expressed in %, is required.

Recorded results for 5 compounds are shown here.
- compound: "Cc1cc(N2CCN3CCCCC3C2)n2nc(C)c(C)c2n1 (stereo not drawn)"
  Percent Effect, %: -7.768
- compound: "CCc1ccc(C(=O)Nc2ccc(CC3CC(=O)NC3=O)cc2)cc1 (stereo not drawn)"
  Percent Effect, %: -47.76
- compound: "CCn1nc2c(cc1=O)CN(Cc1nc(N)c3ccccc3n1)CC2"
  Percent Effect, %: -40.99
- compound: "Cc1n[nH]c(C)c1C1CCCN1C(=O)NCC(=O)NC(C)(C)C (stereo not drawn)"
  Percent Effect, %: -7.96
- compound: "CCCc1nnsc1C(=O)NCC1CCN(c2ccccn2)CC1"
  Percent Effect, %: -128.4

Kindly consider the entry below.
Query block: Entry CC(NC(=O)N(C)Cc1ccncc1)c1nncn1C (stereo not drawn) : reported Percent Effect = ?
Result block: -16.24

###

This listing pairs molecules with measured IC50.
assay.overview: microbe, parasite or virus in culture
applied.conditions: Mycobacterium tuberculosis, 96 h, read-out: pIC50 (converted)

Recorded results for 10 molecules are shown here.
- molecule: "CCO[C@H]1CN(c2nc(-c3ccccc3)no2)C[C@@H]1O"
  IC50: "> 501 µM"
- molecule: "O=C(c1ccno1)N1CCCC(c2ncncc2-c2ccncc2)C1 (stereo not drawn)"
  IC50: "> 50.1 µM"
- molecule: "c1ccc(C2CNCCCO2)cc1 (stereo not drawn)"
  IC50: "306 µM"
- molecule: "CCOCCNC(=O)Nc1ccc(OCc2noc(C3CC3)n2)cc1"
  IC50: "> 50.1 µM"
- molecule: "CCNc1ncc(C(=O)N2CCCCC2)s1"
  IC50: "> 501 µM"
- molecule: "NC(=O)CN(Cc1ccc(Br)cc1)C(=O)c1ccco1"
  IC50: "> 501 µM"
- molecule: "Cc1nc(-n2nc(C3CC3)cc2NC(=O)C(C)C)[nH]c(=O)c1C"
  IC50: "14.2 µM"
- molecule: "CCC1CN(C(=O)c2ccc3ccccc3n2)CCO1 (stereo not drawn)"
  IC50: "> 501 µM"
- molecule: "COc1ccccc1OCC(C)CN (stereo not drawn)"
  IC50: "123 µM"
- molecule: "O=C(NCc1ccc2c(c1)OCCCO2)c1cscn1"
  IC50: "111 µM"

Query block: Entry COc1ccnc(NCc2ccc(CO)c(F)c2)n1 : reported IC50 = ?
Result block: > 501 µM

Query block: Entry CCN1CC2(CC1=O)CN(Cc1cnn(C)c1)CCN(C(=O)C(C)C)C2 (stereo not drawn) : reported IC50 = ?
Result block: > 50.1 µM

Query block: Entry CCS(=O)(=O)N1CCC(c2nnc(CN3CCCCCC3)n2C)CC1 : reported IC50 = ?
Result block: > 50.1 µM
